- Test system: IPEC-J2 cells
- method.notes: cells
- Type: cell-based, pig
- reported.conditions: Sus scrofa, IPEC-J2, 48 h, read-out: IC50 (concentration causing 50% cell death)
pIC50: −log10 of the molar value.
parameter: pIC50

Req: So what's the measured pIC50 for this one? "Cc1ncc([N+](=O)[O-])n1CCO"
Resp: < 2.82

---

- Test system: T84 cells (ATCC CCL-248)
- method.notes: cells
- Format: cell-based, human
- reported.conditions: Homo sapiens, T84, 48 h, read-out: IC50 (concentration causing 50% cell death)
pIC50: −log10 of the molar value.
parameter: pIC50

Req: What measured pIC50 is associated with "Cc1ncc([N+](=O)[O-])n1CCO" on T84 cells (ATCC CCL-248)?
Resp: < 2.82
